target: Protein farnesyltransferase subunit beta/geranylgeranyltransferase type-1 subunit alpha (Homo sapiens, UniProt P49354+P49356); assay: In Vitro FTase/GGTase-1 Inhibition Assay; conditions: pH 7.7; 30 °C

>  <TEST SMILES>
CSCCc1c(-c2cccnc2)nn(-c2ccc(Cl)c(Cl)c2)c1OCCCC(=O)N[C@@H](Cc1ccccc1)C(N)=O

>  <IC50>
> 2000 nM

$$$$

----------
target: Geranylgeranyl transferase type-1 subunit beta [A2V]/Protein farnesyltransferase/geranylgeranyltransferase type-1 subunit alpha (Homo sapiens, UniProt P49354+P53609, A2V); experiment: In Vitro FTase/GGTase-1 Inhibition Assay; details: pH 7.7; 30 °C
Sequence (P53609 whole entry A2V, other chains not shown): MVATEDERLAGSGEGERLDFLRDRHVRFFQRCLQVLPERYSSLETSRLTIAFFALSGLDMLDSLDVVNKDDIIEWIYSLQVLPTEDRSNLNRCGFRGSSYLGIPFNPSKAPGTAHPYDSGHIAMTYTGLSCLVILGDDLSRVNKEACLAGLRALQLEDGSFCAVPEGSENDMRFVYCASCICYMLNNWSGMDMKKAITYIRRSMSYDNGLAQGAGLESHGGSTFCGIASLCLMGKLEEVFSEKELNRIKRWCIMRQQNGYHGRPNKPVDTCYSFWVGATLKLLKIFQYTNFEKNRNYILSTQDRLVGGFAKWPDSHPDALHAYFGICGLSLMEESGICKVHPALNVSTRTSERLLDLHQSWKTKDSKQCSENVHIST
pIC50: −log10 of the molar value.

>  <TEST SMILES>
CSCCc1c(-c2cccnc2)nn(-c2ccc(Cl)c(Cl)c2)c1OCCCC(=O)N[C@@H](Cc1ccccc1)C(N)=O

>  <pIC50>
8.08

$$$$
